- Conditions: in n-propanol, 290.65 K
Assay readout: solubility (mole fraction)
Enter a number only.

O=[N+]([O-])c1cccc(Cl)c1Cl | 0.035

Then there is this molecule:
Give its solubility (mole fraction) value. Item: O=[N+]([O-])c1ccc(Cl)c(Cl)c1
0.0724

----------
- Conditions: in ethyl acetate, 298.15 K
Assay readout: solubility (mole fraction)
Number, no unit, nothing else.

O=[N+]([O-])c1cccc(Cl)c1Cl | 0.592

Could you now consider this next compound?
Reported solubility (mole fraction) for O=[N+]([O-])c1ccc(Cl)c(Cl)c1 : what is it?
0.778

----------
- Conditions: in n-propanol, 288.15 K
Catalogue of solubility (mole fraction) readings, one per entry.
Just the number, please.

O=[N+]([O-])c1cccc(Cl)c1Cl | 0.0318

Continue with the next molecule.
For the molecule O=[N+]([O-])c1ccc(Cl)c(Cl)c1 , what solubility (mole fraction) is on record?
0.0634
